# ASSAY_TEXT: gradient 5% acetonitrile 3 min, to 50% in 2 min, to 85% in 15 min, held 3 min, 100 µL/min
# ASSAY_CONDITIONS: column: Zorbax Extend-C18 2.1 x 50 mm; eluents: water / acetonitrile, 0.1% formic acid
The following molecules are listed with their measured RP-LC retention time values.
MEASUREMENT_NAME: RP-LC retention time (s)

{"columns": ["MOLECULE", "MEASUREMENT_NAME", "ENDPOINT_VALUE"],
 "data": [
  ["CC(=O)Nc1nc(-c2ccc3c(c2)N(C)C(=O)CO3)cs1", "RP-LC retention time", 700],
  ["Cc1ccc(C)c(NC(=O)CCc2cccc3[nH]ccc23)c1", "RP-LC retention time", 879],
  ["Cc1ccc(C(C)NC(=O)c2ccc3[nH]cc(C(=O)C(=O)N4CCCCCC4)c3c2)c(C)c1 (centres undefined)", "RP-LC retention time", 919],
  ["Cc1oc(-c2[nH]ncc2C(=O)N2CCCC2)cc1S(=O)(=O)NCc1ccc(F)cc1", "RP-LC retention time", 709]
]}

====

# ASSAY_TEXT: gradient 5% acetonitrile 3 min, to 50% in 2 min, to 85% in 15 min, held 3 min, 100 µL/min
# ASSAY_CONDITIONS: column: Zorbax Extend-C18 2.1 x 50 mm; eluents: water / acetonitrile, 0.1% formic acid
Classification field: enter Condition met for RP-LC retention time values not below 900 s, Condition not met for values below it.

{"columns": ["MOLECULE", "ANSWER_LABEL"],
 "data": [
  ["O=C(O)c1ccc(Nc2ncnc3c2cnn3Cc2ccccc2)cc1", "Condition not met"],
  ["COC(=O)C1=CN(c2cc(F)ccc2C)c2ccccc2S1(=O)=O", "Condition not met"],
  ["COc1cccc(OCC2c3ccsc3CCN2C(=O)CN(C(C)=O)C2CC2)c1 (stereo unspecified)", "Condition not met"],
  ["O=S(=O)(c1ccc2nc(N3CCN(c4ccccc4)CC3)ccc2c1)N1CCCCC1", "Condition met"],
  ["N#Cc1cccc(S(=O)(=O)N2CCc3nc(-c4ccc(Cl)cc4)ncc3C2)c1", "Condition met"]
]}

====

# ASSAY_TEXT: gradient 5% acetonitrile 3 min, to 50% in 2 min, to 85% in 15 min, held 3 min, 100 µL/min
# ASSAY_CONDITIONS: column: Zorbax Extend-C18 2.1 x 50 mm; eluents: water / acetonitrile, 0.1% formic acid
Classification field: enter t for RP-LC retention time values not below 800 s, f for values below it.

{"columns": ["COMPOUND", "ANSWER_LABEL"],
 "data": [
  ["C[C@H]1CN(S(=O)(=O)c2ccccc2)C[C@@H]1c1nc(-c2ccncc2)no1", "t"],
  ["Cc1cc(C(=O)N2CCOCC2)nn1CC(=O)Nc1nc2ccccc2s1", "f"],
  ["CCC1(O)CCOC2(CCN(Cc3ccncc3F)CC2)C1 (stereo not given)", "f"],
  ["O=C(Cc1csc(NC(=O)C2CC2)n1)Nc1ccc(Cl)c(Cl)c1", "t"],
  ["COc1ccc(C(=O)Nc2nc(-c3ccc4c(c3)NC(=O)C(C)O4)cs2)cc1OC (stereo not given)", "t"],
  ["Cc1ccc(NC(=O)CN2C(=O)CCc3cc(S(=O)(=O)N4CCCCC4C)ccc32)c(C)c1 (stereo not given)", "t"],
  ["CCOC(=O)c1cnc2nc(C)ccc2c1Nc1cc(Cl)ccc1F", "f"],
  ["Cc1ccc(F)cc1S(=O)(=O)N1CCC(N2CCN(Cc3ccccc3)C(=O)C2=O)CC1", "t"],
  ["CC(C)NC(=O)c1cc(-c2ccncc2)n[nH]1", "f"],
  ["O=C(N1CCCC1)N1CCN(c2ccccc2F)CC1", "f"],
  ["COCc1nc2cccnc2n1C1CCN(C(=O)Nc2cc(C)cc(C)c2)CC1", "f"],
  ["CC(C)n1cc(C2=CCN(C(=O)NC3CCCC3)CC2)c2cccnc21", "t"],
  ["O=C(c1ccccc1OCC1CCCN(C2CCC3(CC2)OCCO3)C1)N1CCCC1 (stereo not given)", "f"]
]}

====

# ASSAY_TEXT: gradient 5% acetonitrile 3 min, to 50% in 2 min, to 85% in 15 min, held 3 min, 100 µL/min
# ASSAY_CONDITIONS: column: Zorbax Extend-C18 2.1 x 50 mm; eluents: water / acetonitrile, 0.1% formic acid

{"columns": ["MOLECULE", "RP-LC retention time, s"],
 "data": [
  ["O=C(Cn1c(=O)c2cccn2c2ccc(F)cc21)N1CCN(C(=O)c2ccco2)CC1", 706],
  ["COc1ccc(NC(=O)CN2C(=O)C3CCCN3C(=O)c3ccc(F)cc32)cc1 (stereo unspecified)", 693],
  ["COc1cccc(CNC(=O)CCNc2cnc3cnccn23)c1", 585],
  ["O=C(Nc1cccn2cnnc12)c1ccccn1", 652],
  ["CCN1C(=O)c2cccnc2Sc2cc(NC(=O)c3cc(C)ccc3C)ccc21", 898],
  ["COc1ccc(CC(=O)NCCc2cn(C)c3ncccc23)c(Cl)c1", 690]
]}

====

The following compounds are listed with their measured RP-LC retention time values.
# ASSAY_TEXT: gradient 5% acetonitrile 3 min, to 50% in 2 min, to 85% in 15 min, held 3 min, 100 µL/min
# ASSAY_CONDITIONS: column: Zorbax Extend-C18 2.1 x 50 mm; eluents: water / acetonitrile, 0.1% formic acid

{"columns": ["COMPOUND", "RP-LC retention time (s)"],
 "data": [
  ["Cc1nc(-c2cnccn2)nc2c1CCC(=O)N2Cc1cccc(F)c1", 733],
  ["COCCN1C(=O)c2ccccc2C(C(=O)Nc2ccc(OC)cc2)C12CCCC2 (centres undefined)", 852],
  ["O=C(NC1(c2nc(-c3ccncc3)no2)CCCCC1)c1ccccc1", 863],
  ["O=C(CS(=O)(=O)c1ccc(Cl)cc1)Nc1nc(-c2ccc3c(c2)OCO3)cs1", 959],
  ["CN1CCN(C(=O)C2CCN(S(=O)(=O)c3ccc4c(c3)sc(=O)n4C)CC2)CC1", 596],
  ["CCCNC(=O)C1CCCN(c2nc3ccsc3c(=O)n2-c2cccc(OC)c2)C1 (centres undefined)", 735],
  ["CNC(=O)C1CCCN(c2nc3ncn(CC(=O)Nc4ccc(F)cc4Cl)c(=O)c3s2)C1 (centres undefined)", 650],
  ["O=C(CN1C[C@H]2C[C@H](C1)[C@H]1CCCC(=O)N1C2)NCc1cccs1", 578],
  ["COc1ccc(CCNC(=O)c2ccc3[nH]c4c(c3c2)CN(C(C)=O)CC4)cc1OC", 650],
  ["O=C(c1cccs1)N1CCN(Cc2ccc(=O)n(CC3CC3)c2)CC1", 480],
  ["COc1ccc(Cl)cc1S(=O)(=O)Nc1ccc2nc(N3CCN(C)CC3)cc(C(=O)O)c2c1", 604],
  ["CC(CNC(=O)CN1C(=O)C2CCCCN2c2ccc(S(=O)(=O)N(C)C)cc21)c1ccccc1 (centres undefined)", 943],
  ["O=C(CCc1ccccc1)NCCn1c(C(F)(F)F)nc2cccnc21", 998],
  ["CN1C(=O)C2CCCCN2c2ccc(C(=O)NCCN3CCOCC3)cc21 (centres undefined)", 582],
  ["Cc1ccc(CNC(=O)c2nc(-c3ccnc(N4CCCC4)c3)no2)o1", 663],
  ["O=c1c2sccc2n(Cc2nc(-c3ccc(F)cc3)no2)c(=O)n1Cc1ccc(F)cc1", 1100],
  ["CC1CCN(C(=O)c2cn(-c3cc(N4CCC(C)CC4)ncn3)cn2)CC1", 1030],
  ["CC(C)N1CCN(S(=O)(=O)c2ccc(-c3nnc(C4CC4)o3)o2)CC1", 611],
  ["Cc1nc(-c2noc(-c3cccc(F)c3)n2)cn1CC(=O)Nc1cccc(F)c1", 889],
  ["NC(=O)C1(N2CCCCC2)CCN(c2ncc(S(=O)(=O)c3ccccc3)c(N)n2)CC1", 588],
  ["Cc1nn(CC(=O)NCCCOC(C)C)c(=O)c2c(-n3cccc3)n(-c3ccc(Cl)cc3)nc12", 997],
  ["COc1cc2c(cc1/C=C/[N+](=O)[O-])OC(C)C2 (centres undefined)", 908],
  ["CCCN1CCN(C(=O)C2CCN(c3cnn(CCC)c(=O)c3)CC2)CC1", 570],
  ["O=C(NC1CC1)C1CCCN(c2nccn3nc(-c4ccccc4Cl)cc23)C1 (centres undefined)", 788],
  ["CCN1C(=O)C2CC3(CCN(C(=O)CC(C)C)CC3)CN2C1=O (centres undefined)", 692],
  ["O=C(Cn1c(=O)oc2ccccc21)NCCc1csc2nc(-c3ccccc3F)nn12", 746],
  ["CN(C)c1ccc(C(=O)NC2CCN(c3cc(-c4ccc(Cl)cc4)[nH]n3)C2)cc1 (centres undefined)", 790],
  ["COc1ccc2[nH]cc(CCNC(=O)C34CCC=C3N(C3CCCC3)C(=O)CC4)c2c1 (centres undefined)", 798],
  ["CCOC(=O)C1=C(C)NC(=O)NC1c1ccc(OCC(=O)N2CCCCC2)cc1 (centres undefined)", 682],
  ["O=C(NCc1ccc(F)c(Cl)c1)C1CCN(c2ncnc3c2oc2ccccc23)CC1", 781],
  ["CC(C)COc1nc2c(c(=O)n(C)c(=O)n2C)n1C", 865],
  ["Cc1noc(C)c1S(=O)(=O)N1CCC(C(=O)NCCc2csc(-c3ccccc3)n2)CC1", 877],
  ["COc1ccccc1NC(=O)N1C[C@H](c2nc(-c3ccccc3)no2)[C@@H](C)C1", 883],
  ["COc1ccccc1N1CCN(c2nnc(SC(C)C)s2)CC1", 952]
]}
